All values here come from PubChem BioAssay.

# experimental details: RAM signaling pathway blockade in yeast – S. cerevisiae, Pdr1DBD-CYC8 efflux-inhibited sensitized strain, primary screen (AID 1298);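 note: 0% = DMSO untreated cells without growth and 100% = 10 µM 1-NA-PP1 full growth; higher means more yeast growth rescued from 5-FOA killing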
# test conditions: S. cerevisiae cbk1-as DSE1-URA3 strain, 5-FOA growth OD615, 2 d; at 50 µM; stronger effect = higher value
reported property: RAM network inhibition (%)
# number only, unit % dropped from output

Illustrative cases are given below, each with its answer.
| molecule | reported property | unit spec | meas value |
| --- | --- | --- | --- |
| CCOc1ccc(N2C(=O)CC(Sc3nc(C)cc(C)n3)C2=O)cc1 (configuration not stated) | RAM network inhibition | % | 3.27 |
| Cc1cc(Nc2ccc(C)c(C)c2)n2nc(C)nc2n1 | RAM network inhibition | % | 3.69 |
| O=C(Nc1nccs1)c1ccc(S(=O)(=O)N2CCCCC2)cc1 | RAM network inhibition | % | 5.88 |

Query: RAM network inhibition; subject: CCOCCn1c(COc2ccccc2)nc2ccccc21
6.89
